Tested on: TO-3-N3-2 (biotin conjugate)
Experiment: pull-down binding Z-score (relative to library population); higher = stronger binding
Details: RNA library: Library-2
valueType: pull-down binding Z-score

Before answering, review these 4 worked examples.
CGCGGAGCAGCGCUGGGUGCAGCGCCUG [hsa-mir-4508] : -0.27
UGCCCUGGGGCCGUCCCUGCGCA [hsa-mir-1909] : 0.143
GGGAGAUAACAUUCC [IAV_invivo_M1_M2_7_Motif_7+IAV_invivo_M1_M2_7_Motif_7] : -0.0296
AGAUCUAUGUCAUAUAUACAGAUAU [hsa-mir-3924] : 0.268

Problem: Given the entry UGUUUAUGUUAUUUAUGGUUAAACA [hsa-mir-376c] , what pull-down binding Z-score was observed with TO-3-N3-2 (biotin conjugate)?
Result: -0.269

Problem: // next record GGGCUUUCUGGUUUUAUUUUAAGCCC [hsa-mir-186]
Result: 0.0672

Problem: // next record AAGGGUGUAUGAGAGAUCAACCCUU [hsa-mir-5697]
Result: -0.0393

Problem: // next record GCUGUAGUGUUACUAAUCCUUAUGACAGC
Result: -0.242

Problem: // next record CUCAUGAUAUGUUUGCCCCAUCAGCGUGUCACGAG [hsa-mir-3616]
Result: -0.139

Problem: // next record UCCAGGCAUCUGUGUCUG [hsa-mir-4669]
Result: 0.402

###

Test system: TO-N3 (biotin conjugate)
Assay: pull-down binding Z-score (relative to library population); higher = stronger binding
Conditions: RNA library: Library-2
Would you mind labelling by pull-down binding Z-score? At or over 0.3 is true (1), under is false (0).

Problem: Decide: is the reported value of pull-down binding Z-score for GGCAUCCCCAUUGCU [hsa-mir-4304] equal to or greater than 0.3?
Result: true (1)

Problem: // next record GUGGUAGUUAUACUAAUGACAAAGCUUGCCCAUUGAUUGCUGC [DMSMaPseq_invitro_SARS-CoV-2_Motif_161]
Result: true (1)

Problem: // next record GGUUGUUUAAUUAGGAACCAACU [hsa-mir-190b]
Result: false (0)

Problem: // next record UCCUAUUUCUGAACAUGACUACCAGAUUGGUGGUUAUACUGAAAAAUGGGA
Result: false (0)

Problem: // next record GUGCCAUCAAAUUGGAUGACAAAGAUCCAAAUUUCAAAGAUCAAGUCAUUUUGCUGAAUAAGCAUAUUGACGCAU
Result: false (0)

###

Recorded pull-down binding Z-score by entry
System: TO-3-N3 (biotin conjugate)
Assay: pull-down binding Z-score (relative to library population); higher = stronger binding
Details: RNA library: Library-2
Reply with just the number.

Before answering, review these 5 worked examples.
GCGCAGCCAGAAACUGGCAGCGC [mismatch-AA] : -0.468
CAAUACAUAAGAAAGCUACAUGAUGAGUUAACAGGACACAUGUUAGACAUGUAUUCUGUUAUGCUUACUAAUGAUAACACUUCAAGGUAUUG : -0.424
UCCCUUCCUGGACACACAGGAGGAGA [hsa-mir-5680] : -0.738
UCAUAAAGAUGAUC [hsa-mir-8067] : 0.251
UGUUUAACUCCUCUCCACGUGAACA [hsa-mir-499a] : 0.828

Problem: Give the measured pull-down binding Z-score of AAGAGGAGGUGGUUGUUUUCCUCCUCUU [hsa-mir-627] .
Result: 0.432

Problem: // next record GGCAGUUUGUAUGUAAAUAAACAUGCAUUCC [SHAPE_invivo_SARS-CoV-2_Motif_362]
Result: 0.0152

Problem: // next record AUUUCCCAAAGUUGGGAAAA [hsa-mir-320b-2]
Result: 0.0303

###

Tested on: TO-N3 (biotin conjugate)
Experiment: pull-down binding Z-score (relative to library population); higher = stronger binding
Details: RNA library: Library-2
Recorded pull-down binding Z-score by entry
Reply with just the number.

Before answering, review these 5 worked examples.
CGGGGCGGGAGGGGAAGGGACGCCCG [hsa-mir-6850] : 6.39
AGAAAGUGAAACACUAUUUUAGGUUUU [hsa-mir-4458] : -0.0974
GGUUCAAGUUUGGCUCCAUCUUUAUGAAA [hsa-mir-4506] : 0.0775
AACGUUAUGUGUGGUCUUUAACCUGUU [hsa-mir-6755] : -0.139
GUUUUUCUGUUUGGAACUUUAAUUUUAGCCAUGGCAGAUUCCAACGGUACUAUUACCGUUGAAGAGCUUAAAAAGCUCCUUGAAC : -0.856

Problem: Given the entry CUUUAGGCAUUCAGAAUAGCUAAAG [hsa-mir-4662b] , what pull-down binding Z-score was observed with TO-N3 (biotin conjugate)?
Result: -0.472

Problem: // next record UGUACAUACAGCUAAUAAAUGGGAUCUCAUUAUUAGUGAUAUGUACG [DMSMaPseq_invitro_SARS-CoV-2_Motif_370]
Result: -0.461

Problem: // next record AGAAAAUUUUUCUCCAAAGUUUUCU [hsa-mir-4659b]
Result: -1.06

Problem: // next record GAUUCUGAUUCAGGGACCAAGAUUC [hsa-mir-544a]
Result: 1.04

###

Test system: G-clamp-N3 (biotin conjugate)
Assay: pull-down binding Z-score (relative to library population); higher = stronger binding
Conditions: RNA library: Library-1 (pre-miRNA loops + repeats)
valueType: pull-down binding Z-score

GCCAUCUGGUUGUGACAUCACUGAUGGC [hsa-mir-7155] : -0.231

Problem: Give the measured pull-down binding Z-score of GAGACACCCGCUACCUGGUGUU [hsa-mir-4321] .
Result: -0.619

Problem: // next record CUUUGCUACUGCUC [hsa-mir-6072]
Result: -0.385

Problem: // next record CUCACAUGGAGUAAAAUAUGAU [hsa-mir-3134]
Result: -1.71

Problem: // next record UUACUCACCCUCUCAAAACCGAGACUCAGAGACGUUGGGUAA [hsa-mir-7973-2]
Result: -1.63

Problem: // next record AUGUUCGCUUCAUUCAUCAUGAAUAA [hsa-mir-655]
Result: -0.248

###

Recorded pull-down binding Z-score by entry
Test system: TO-N3 (biotin conjugate)
Assay: pull-down binding Z-score (relative to library population); higher = stronger binding
Conditions: RNA library: Library-2
Reply with just the number.

GCACAUAUAUCUACUAUUGGUGUUUGUUCUAUGACUGACAUAGCCAAGAAACCAACUGAAACGAUUUGUGC : -0.457
CCACGCACAUUGCUAACUAAGGGCACACUAGAACCAGAAUAUUUCAAUUCAGUGUGUAGACUUAUGAAAACUAUAGGUCCAGACAUGUUCCUCGGAACUUGUCGG : -0.189
UUGGUCCGUAUGUGUGGUGCCACCGG [hsa-mir-1908] : 0.148
AAACGUGCUCAGUGUCUUUAUAACAGGAAAGCCGUAAAC [hsa-mir-1272] : 0.528
CUGAGCUGGGUACUGCCUGUUCAG [hsa-mir-589] : 0.518
CAAUCAUGUAUAAUUAAAUUUGAUUG [hsa-mir-514a-1] : -0.511
GUGGAAUGCAAAGUCCCAC [hsa-mir-5698] : -0.332
GUGGCUAAAUCUGAAUUUGACCGUGAUGCAGCCAU [DMSMaPseq_invitro_SARS-CoV-2_Motif_214] : -0.504
CCACUGGGAAUGCUCCCUGAGGACGUUAUAUGAGUG [hsa-mir-4319] : 0.802
CUCAGGACAGCGGGUGUCAGCUUGCCUGAC [hsa-mir-6859-1_6859-3_6859-2_6859-4] : 1.12

Problem: Given the entry GGGCAGGGAGUCAGAGGGGACCGCCC [hsa-mir-4740] , what pull-down binding Z-score was observed with TO-N3 (biotin conjugate)?
Result: 1.98

Problem: // next record CUUCGGUAUUCAUCAAAAAUACCAAAG [hsa-mir-4735]
Result: -1.08

Problem: // next record GUCUGGCAUUGUCUGAUAUAC [hsa-mir-1294]
Result: 1.2

Problem: // next record UUGUGGCUUUGGGUGGAUAUUAAUCAGCCACAG [hsa-mir-383]
Result: 0.0969

Problem: // next record CCUUGCGAAAGGAGAGAAGGCUAAUGUGCUAAUUGGGCAAGG [IAV_invivo_PB2_1_Motif_34+IAV_invivo_PB2_1_Motif_34]
Result: 0.291

###

Tested on: G-clamp-N3 (biotin conjugate)
Experiment: pull-down binding Z-score (relative to library population); higher = stronger binding
Conditions: RNA library: Library-1 (pre-miRNA loops + repeats)
valueType: pull-down binding Z-score
Reply with just the number.

Before answering, review these 4 worked examples.
AUGCUAAGUCCAUGGGCAAACAU [hsa-mir-5704] : -0.176
GGAGGCAUGAAUGAGCCAUCUUUCCAAUGCCUUUC [hsa-mir-4743] : -1.03
GGGGAUGGACUGGAAGUGGGCAGCAUGGAGCUGACCUUCAUCAUGGCUUGGCCAACAUAAUGCCUC [hsa-mir-1236] : -0.0946
CAGUGACAUGCGUUUAAC [hsa-mir-4485] : -0.778

Problem: Give the measured pull-down binding Z-score of GCUAGUGCUGGCUCAAUGCAAUGC [hsa-mir-502] .
Result: -0.151
